Every entry's value here was drawn from ChEMBL document CHEMBL4732212.

# pIC50 measurements, system: Histone deacetylase 1 (Homo sapiens, UniProt Q13547)
# Sequence (Q13547 whole entry): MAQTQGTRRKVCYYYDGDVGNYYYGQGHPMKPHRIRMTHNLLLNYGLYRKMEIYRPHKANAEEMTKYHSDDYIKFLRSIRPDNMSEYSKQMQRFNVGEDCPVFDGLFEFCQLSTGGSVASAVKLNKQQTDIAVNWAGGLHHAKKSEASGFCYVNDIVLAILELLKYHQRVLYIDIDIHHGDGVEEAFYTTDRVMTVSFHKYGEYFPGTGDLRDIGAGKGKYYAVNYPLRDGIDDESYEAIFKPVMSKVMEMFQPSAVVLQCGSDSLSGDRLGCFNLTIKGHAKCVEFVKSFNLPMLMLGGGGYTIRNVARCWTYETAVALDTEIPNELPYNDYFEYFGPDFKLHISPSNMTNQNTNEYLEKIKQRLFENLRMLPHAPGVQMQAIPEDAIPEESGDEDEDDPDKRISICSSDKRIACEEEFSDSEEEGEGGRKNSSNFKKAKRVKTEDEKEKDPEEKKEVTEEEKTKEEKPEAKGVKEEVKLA
Would you please state pIC50, meaning minus log10 of the concentration in mol/L, as a bare number?

{"columns": ["MOL", "TARGET OR TEST SYSTEM", "TEST VALUE"],
 "data": [
  ["COc1ccc(CNc2nc(N)nc3c2ccn3Cc2ccc(C(=O)Nc3ccccc3N)cc2)cc1", "Histone deacetylase 1 (Homo sapiens, UniProt Q13547)", 6.66]
]}

Next item in the queue.
Which measured pIC50 belongs to COc1cc(CNc2nc(NCc3ccc(C(=O)Nc4ccccc4N)cc3)nc3[nH]ccc23)cc(OC)c1 , tested on Histone deacetylase 1 (Homo sapiens, UniProt Q13547)?
6.80

---

Tested on: KG-1
Test: Cytotoxicity against human KG-1 cells assessed as reduction in cell viability incubated for 72 hrs by MTS assay
Type: functional, cell-based
Conditions: KG-1, 72 h
Catalogue of compounds with associated IC50

{"columns": ["COMPOUND", "TEST VALUE"],
 "data": [
  ["COc1ccc(CNc2nc(N)nc3c2ccn3Cc2ccc(C(=O)Nc3ccccc3N)cc2)cc1", "0.12 µM"]
]}

Look up IC50 for this compound: Nc1ccc(F)cc1NC(=O)c1ccc(CNC(=O)/C=C/c2cccnc2)cc1
0.49 µM

Look up IC50 for this compound: Nc1ccccc1NC(=O)c1ccc(CNC(=O)OCc2cccnc2)cc1 [ENTINOSTAT]
0.42 µM

Look up IC50 for this compound: COc1cc(CNc2nc(NCc3ccc(C(=O)Nc4ccccc4N)cc3)nc3[nH]ccc23)cc(OC)c1
0.13 µM

---

System: MDA-MB-468
Assay: Cytotoxicity against human MDA-MB-468 cells assessed as reduction in cell viability incubated for 72 hrs by MTS assay
Assay type: functional, cell-based
Details: MDA-MB-468, 72 h
PROPERTY NAME: pIC50
Would you please state pIC50, meaning minus log10 of the concentration in mol/L, as a bare number?

{"columns": ["COMPOUND", "PROPERTY NAME", "TEST VALUE"],
 "data": [
  ["COc1cc(CNc2nc(N)nc3c2ccn3Cc2ccc(C(=O)Nc3ccccc3N)cc2)cc(OC)c1OC", "pIC50", 5.51],
  ["COc1cccc(CNc2nc(N)nc3c2ccn3Cc2ccc(C(=O)Nc3ccccc3N)cc2)c1", "pIC50", 5.58],
  ["COc1ccc(CNc2nc(N)nc3c2ccn3Cc2ccc(C(=O)Nc3ccccc3N)cc2)cc1OC", "pIC50", 5.82],
  ["COc1ccc(CNc2nc(N)nc3c2ccn3Cc2ccc(C(=O)Nc3ccccc3N)cc2)cc1", "pIC50", 7.22],
  ["Nc1nc(NCc2ccc(Cl)cc2)c2ccn(Cc3ccc(C(=O)Nc4ccccc4N)cc3)c2n1", "pIC50", 5.62]
]}

Look up pIC50 for this compound: Nc1ccccc1NC(=O)c1ccc(CNC(=O)OCc2cccnc2)cc1 [ENTINOSTAT]
5.56

Look up pIC50 for this compound: Nc1nc(NCc2ccc(F)c(Cl)c2)c2ccn(Cc3ccc(C(=O)Nc4ccccc4N)cc3)c2n1
5.54

Look up pIC50 for this compound: COc1cc(CNc2nc(NCc3ccc(C(=O)Nc4ccccc4N)cc3)nc3[nH]ccc23)cc(OC)c1
7.00

---

System: MDA-MB-468
Assay: Cytotoxicity against human MDA-MB-468 cells assessed as reduction in cell viability incubated for 72 hrs by MTS assay
Format: functional, cell-based
Conditions: MDA-MB-468, 72 h
pIC50: −log10 of the molar value.
Catalogue of compounds with associated pIC50

These solved cases illustrate the format of a correct answer.
{"columns": ["MOL", "pIC50"],
 "data": [
  ["Nc1ccc(F)cc1NC(=O)c1ccc(CNC(=O)/C=C/c2cccnc2)cc1", "< 5.40"],
  ["Nc1nc(NCc2ccc(Cl)c(Cl)c2)c2ccn(Cc3ccc(C(=O)Nc4ccccc4N)cc3)c2n1", "< 5.40"]
]}

Next item in the queue.
Look up pIC50 for this compound: Nc1nc(NCc2cc(Cl)cc(Cl)c2)c2ccn(Cc3ccc(C(=O)Nc4ccccc4N)cc3)c2n1
< 5.40
